Experimental system: MAGI2_4, Q86UL8
Sequence (Q86UL8 772-865): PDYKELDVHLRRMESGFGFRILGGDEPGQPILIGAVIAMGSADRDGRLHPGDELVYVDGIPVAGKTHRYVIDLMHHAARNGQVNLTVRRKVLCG
Protocol: holdup assay
Parameters: key: below the threshold = too weak to quantify, mostly under pKd 3.1 to 4
Applied conditions: plain residues with an end cap or a label only (N-terminal biotin on a linker: ttds)

>  <Binder>
VDFPPKESSL [ACVR2A, P27037]

>  <pKd>
below the threshold

$$$$
>  <Binder>
PVRVCEETSL [OTULIN, Q96BN8]

>  <pKd>
below the threshold

$$$$
>  <Binder>
PRVKPQRSKV [PPP1R13L, Q8WUF5]

>  <pKd>
below the threshold

$$$$
